assay: amyloid nucleation score (Sup35N fusion, yeast selection) (log enrichment); library NNK3; higher = more nucleation; inactive = no reads after selection;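 further: zero at mode of non-aggregating sequences after 7 days selection at 30°C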
Measured parameter: amyloid nucleation score

Answered cases to consult:
>>> measured_result("LLHTQMALGSLCVGYKIWLG")
"inactive"
>>> measured_result("RVCCVGYLSNLLTMKGTGID")
1.81
>>> measured_result("TLYKSGGEFHYKGLALKSKC")
"inactive"
>>> measured_result("SWCVDTSIQFPKAFNIVCGF")
"inactive"
>>> measured_result("STTVTGLYKNFRHYVSGRCG")
"inactive"

Ask: Tell me measured amyloid nucleation score for NYFQFCCGLETVNNYYRKCE please.
Reply: 1.76

Ask: Tell me measured amyloid nucleation score for WWGNRAVVYIILLHEPGAWR please.
Reply: inactive

Ask: Tell me measured amyloid nucleation score for RMPAFLCGYC please.
Reply: inactive

Ask: Tell me measured amyloid nucleation score for LCNSVRNGNYYTGYGVTLYV please.
Reply: inactive

Ask: Tell me measured amyloid nucleation score for MGKETRVA please.
Reply: inactive
